Measured values drawn from ChEMBL document CHEMBL4011606 for this set.

Measured selectivity ratio by item
test: Selectivity index, ratio of CC50 for African green monkey Vero cells to IC50 for chloroquine-sensitive Plasmodium falciparum 3D7; type: toxicity; conditions: read-out: Ratio CC50/IC50

COMPOUND | selectivity ratio
O=C(CCCc1cn(S(=O)(=O)c2cccc3ccccc23)c2ccccc12)NC1CCCCCC1 | > 53
O=C(Cc1c[nH]c2ccccc12)NCc1cn(CC(=O)Nc2ccc(I)cc2)nn1 | > 65
Cc1ccc(S(=O)(=O)n2cc(CCCC(=O)NC3CCCCCC3)c3ccccc32)cc1 | > 73
CC(C)(C)c1ccc(S(=O)(=O)n2cc(CCCC(=O)NC3C4CC5CC(C4)CC3C5)c3ccccc32)cc1 (centres undefined) | > 74
Cc1cc(S(=O)(=O)n2cc(CCCC(=O)NC34CC5CC(CC(C5)C3)C4)c3ccccc32)c(C)cc1Cl | > 129
O=C(CCCc1cn(Cc2ccc(F)cc2)c2ccccc12)NC12CC3CC(CC(C3)C1)C2 | > 113
O=C(CCCc1cn(S(=O)(=O)c2ccc(F)cc2)c2ccccc12)NC12CC3CC(CC(C3)C1)C2 | > 85
CC(C)(C)c1ccc(S(=O)(=O)n2cc(CCCC(=O)NC34CC5CC(CC(C5)C3)C4)c3ccccc32)cc1 | > 133
O=C(CCCc1cn(CCN2CCOCC2)c2ccccc12)NC1CCCCCC1 | > 60

====

tested on: Plasmodium falciparum; test: Antiplasmodial activity against chloroquine-sensitive Plasmodium falciparum 3D7 infected in human erythrocytes measured after 72 hrs by SYBR green 1 dye based fluorescence assay; type: functional, cell-based; details: 3D7, 72 h
pIC50: −log10 of the molar value.
molecules and their reported pIC50

MOLECULE | TESTED_TARGET | READING_QUALIFIER | pIC50
O=C(CCCc1cn(CCN2CCCC2)c2ccccc12)NC12CC3CC(CC(C3)C1)C2 | Plasmodium falciparum | = | 5.15
O=C(CCCc1cn(CCN2CCCCC2)c2ccccc12)NC12CC3CC(CC(C3)C1)C2 | Plasmodium falciparum | = | 5.25
O=C(CCCc1cn(Cc2ccc(F)cc2)c2ccccc12)NC12CC3CC(CC(C3)C1)C2 | Plasmodium falciparum | = | 5.66
O=C(Cn1cc(Cn2cc(CCCC(=O)NC3CCCCCC3)c3ccccc32)nn1)Nc1ccc(F)c(Cl)c1 | Plasmodium falciparum | = | 5.00
O=C(CCCc1cn(Cc2ccc(Br)cc2)c2ccccc12)NC12CC3CC(CC(C3)C1)C2 | Plasmodium falciparum | = | 5.50
O=C(Cn1cc(Cn2cc(CCCC(=O)NC34CC5CC(CC(C5)C3)C4)c3ccccc32)nn1)Nc1ccc(Cl)cc1 | Plasmodium falciparum | < | 5.00
O=C(CCCc1cn(S(=O)(=O)c2ccccc2)c2ccccc12)NC1CCCCCC1 | Plasmodium falciparum | = | 5.13
O=C(CCCc1cn(Cc2ccc(Br)cc2)c2ccccc12)NC1CCCCCC1 | Plasmodium falciparum | < | 5.00
O=C(Cn1cc(Cn2cc(CCCC(=O)NC3CCCCCC3)c3ccccc32)nn1)Nc1ccc(I)cc1 | Plasmodium falciparum | < | 5.00
O=C(Cn1cc(Cn2cc(CCCC(=O)NC3CCCCCC3)c3ccccc32)nn1)Nc1ccccc1Cl | Plasmodium falciparum | < | 5.00
O=C(CCCc1cn(S(=O)(=O)c2ccccc2)c2ccccc12)NC12CC3CC(CC(C3)C1)C2 | Plasmodium falciparum | = | 5.30
Cc1ccc(NC(=O)Cn2cc(Cn3cc(CCCC(=O)NC4CCCCCC4)c4ccccc43)nn2)cc1C | Plasmodium falciparum | < | 5.00
O=C(Cc1c[nH]c2ccccc12)NCc1cn(CC(=O)Nc2ccccc2Cl)nn1 | Plasmodium falciparum | < | 5.00
O=C(Cn1cc(Cn2cc(CCCC(=O)NC3CCCCCC3)c3ccccc32)nn1)Nc1ccc(Cl)cc1 | Plasmodium falciparum | < | 5.00
Cc1cc(S(=O)(=O)n2cc(CCCC(=O)NC34CC5CC(CC(C5)C3)C4)c3ccccc32)c(C)cc1Cl | Plasmodium falciparum | = | 5.71
O=C(CCCc1cn(Cc2cn(Cc3ccccc3)nn2)c2ccccc12)NC12CC3CC(CC(C3)C1)C2 | Plasmodium falciparum | = | 5.67
O=C(Cc1c[nH]c2ccccc12)NCc1cn(CC(=O)Nc2ccc(F)cc2)nn1 | Plasmodium falciparum | = | 5.29
CC(C)(C)c1ccc(S(=O)(=O)n2cc(CCCC(=O)NC3C4CC5CC(C4)CC3C5)c3ccccc32)cc1 (centres undefined) | Plasmodium falciparum | = | 5.47
CCCn1cc(CCCC(=O)NC23CC4CC(CC(C4)C2)C3)c2ccccc21 | Plasmodium falciparum | = | 5.32
O=C(CCCc1c[nH]c2ccccc12)NC1CCCCCC1 | Plasmodium falciparum | < | 5.00
Cc1ccc(S(=O)(=O)n2cc(CCCC(=O)NC3CCCCCC3)c3ccccc32)cc1 | Plasmodium falciparum | = | 5.47
O=C(Cc1c[nH]c2ccccc12)NCc1cn(CC(=O)Nc2ccc(Cl)cc2)nn1 | Plasmodium falciparum | < | 5.00
CC(C)(C)c1ccc(S(=O)(=O)n2cc(CCCC(=O)NC3CCCCCC3)c3ccccc32)cc1 | Plasmodium falciparum | = | 5.70
CC(C)(C)c1ccc(S(=O)(=O)n2cc(CCC(=O)NC34CC5CC(CC(C5)C3)C4)c3ccccc32)cc1 | Plasmodium falciparum | = | 5.24

====

assay: Selectivity index, ratio of CC50 for African green monkey Vero cells to IC50 for chloroquine-sensitive Plasmodium falciparum 3D7; type: toxicity; details: read-out: Ratio CC50/IC50

MOL | selectivity ratio
Cc1ccc(S(=O)(=O)n2cc(CCCC(=O)NC34CC5CC(CC(C5)C3)C4)c3ccccc32)cc1 | > 62
O=C(CCCc1cn(S(=O)(=O)c2ccccc2)c2ccccc12)NC12CC3CC(CC(C3)C1)C2 | > 49
O=C(CCCc1cn(Cc2ccc(Br)cc2)c2ccccc12)NC12CC3CC(CC(C3)C1)C2 | > 79
CC(C)(C)c1ccc(S(=O)(=O)n2cc(CCCC(=O)NC3CCCCCC3)c3ccccc32)cc1 | > 125
Cc1ccc(NC(=O)Cn2cc(Cn3cc(CCCC(=O)NC45CC6CC(CC(C6)C4)C5)c4ccccc43)nn2)cc1C | > 25
O=C(CCCc1cn(Cc2ccc(Cl)cc2)c2ccccc12)NC12CC3CC(CC(C3)C1)C2 | > 73
Cc1cc(S(=O)(=O)n2cc(CCCC(=O)NC3CCCCCC3)c3ccccc32)c(C)cc1Cl | > 115
CCCCCCCn1cc(CCCC(=O)NC23CC4CC(CC(C4)C2)C3)c2ccccc21 | > 130
O=C(CCCc1cn(Cc2cn(Cc3ccccc3)nn2)c2ccccc12)NC12CC3CC(CC(C3)C1)C2 | > 115
O=C(CCCc1cn(Cc2ccccc2)c2ccccc12)NC12CC3CC(CC(C3)C1)C2 | > 69

====

test system: Plasmodium falciparum; assay: Antiplasmodial activity against chloroquine-sensitive Plasmodium falciparum 3D7 infected in human erythrocytes measured after 72 hrs by SYBR green 1 dye based fluorescence assay; type: functional, cell-based; conditions: 3D7, 72 h

MOL | READING_QUALIFIER | IC50, µM
CC(C)(C)c1ccc(S(=O)(=O)n2cc(CCC(=O)NC3CCCCCC3)c3ccccc32)cc1 | = | 6.24
C=CCn1cc(CCCC(=O)NC23CC4CC(CC(C4)C2)C3)c2ccccc21 | = | 5.04
O=C(CCCc1cn(S(=O)(=O)c2ccc(F)cc2)c2ccccc12)NC12CC3CC(CC(C3)C1)C2 | = | 2.94
O=C(CCCc1cn(Cc2ccc(Cl)cc2)c2ccccc12)NC12CC3CC(CC(C3)C1)C2 | = | 3.4
Cc1ccc(NC(=O)Cn2cc(Cn3cc(CCCC(=O)NC45CC6CC(CC(C6)C4)C5)c4ccccc43)nn2)cc1C | > | 10
O=C(Cc1c[nH]c2ccccc12)NCc1cn(CC(=O)Nc2ccc(Br)cc2)nn1 | = | 8.77
Cn1cc(CCCC(=O)NC2CCCCCC2)c2ccccc21 | > | 10
O=C(CCCc1cn(S(=O)(=O)c2cccs2)c2ccccc12)NC1CCCCCC1 | > | 10
O=C(Cc1c[nH]c2ccccc12)NCc1cn(CC(=O)Nc2ccc(I)cc2)nn1 | = | 3.83
O=C(CCCc1cn(Cc2cn(Cc3ccccc3)nn2)c2ccccc12)NC1CCCCCC1 | > | 10
O=C(Cn1cc(Cn2cc(CCCC(=O)NC34CC5CC(CC(C5)C3)C4)c3ccccc32)nn1)Nc1ccc(Br)cc1 | > | 10
O=C(CCCc1cn(Cc2ccccc2)c2ccccc12)NC1CCCCCC1 | = | 9.56
O=C(CCCc1cn(Cc2ccc(Cl)cc2)c2ccccc12)NC1CCCCCC1 | > | 10
O=C(CCCc1cn(Cc2ccccc2)c2ccccc12)NC12CC3CC(CC(C3)C1)C2 | = | 3.6
O=C(Cn1cc(Cn2cc(CCCC(=O)NC34CC5CC(CC(C5)C3)C4)c3ccccc32)nn1)Nc1ccc(I)cc1 | > | 10
O=C(Cn1cc(Cn2cc(CCCC(=O)NC3CCCCCC3)c3ccccc32)nn1)Nc1ccc(Br)cc1 | > | 10
O=C(CCCc1cn(CCN2CCOCC2)c2ccccc12)NC1CCCCCC1 | = | 4.15
Cc1ccc(NC(=O)Cn2cc(CNC(=O)Cc3c[nH]c4ccccc34)nn2)cc1C | = | 7.02
CCCCCCCn1cc(CCCC(=O)NC23CC4CC(CC(C4)C2)C3)c2ccccc21 | = | 1.91
O=C(Cn1cc(Cn2cc(CCCC(=O)NC3CCCCCC3)c3ccccc32)nn1)Nc1ccc(F)cc1 | = | 8.12
